Exercise: state measured IC50 for each of the molecules provided.
- testTarget: rh integrin α4β7 (Homo sapiens, UniProt P13612+P26010)
- Construct: purchased R&D Systems 5397-A30
- Sequence (P26010 20-723 limits assumed, one chain of several): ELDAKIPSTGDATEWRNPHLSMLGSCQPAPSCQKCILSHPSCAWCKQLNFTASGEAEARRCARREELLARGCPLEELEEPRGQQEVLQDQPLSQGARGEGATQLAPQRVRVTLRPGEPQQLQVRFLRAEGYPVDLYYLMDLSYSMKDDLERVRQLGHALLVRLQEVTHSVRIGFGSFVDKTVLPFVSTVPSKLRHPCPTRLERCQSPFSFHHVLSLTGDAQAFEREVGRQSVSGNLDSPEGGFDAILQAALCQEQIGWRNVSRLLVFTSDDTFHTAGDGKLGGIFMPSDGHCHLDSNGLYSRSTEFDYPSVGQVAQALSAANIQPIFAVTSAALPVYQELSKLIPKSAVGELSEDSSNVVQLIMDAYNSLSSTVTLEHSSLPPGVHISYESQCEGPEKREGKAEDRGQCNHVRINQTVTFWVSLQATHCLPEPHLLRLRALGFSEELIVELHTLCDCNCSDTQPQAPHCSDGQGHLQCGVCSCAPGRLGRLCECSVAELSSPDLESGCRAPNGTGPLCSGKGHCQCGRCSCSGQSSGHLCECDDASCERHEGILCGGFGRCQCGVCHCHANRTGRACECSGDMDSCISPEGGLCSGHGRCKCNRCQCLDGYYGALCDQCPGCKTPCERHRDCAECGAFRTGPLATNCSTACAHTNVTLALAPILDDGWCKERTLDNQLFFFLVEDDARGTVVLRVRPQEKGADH
- protocolDetails: α4β7-MAdCAM Competition ELISA
- Type: binding
- particulars: Table 3-B, Potency (α4β7); range classes; read-out: α4β7 ELISA IC50
Bridge positions count the residues as written; N and C are the ends. Square brackets hold non-standard residues; d marks the D form. Peptide text beside a SMILES is read from it. Phe(4-tBu) = CC(C)(C)c1ccc(C[C@H](N)C(=O)O)cc1; 2Nal = N[C@@H](Cc1ccc2ccccc2c1)C(=O)O; NMeR = CN[C@@H](CCCNC(=N)N)C(=O)O; β3hE = N[C@@H](CCC(=O)O)CC(=O)O; Pen = CC(C)(S)[C@H](N)C(=O)O; βAla = NCCC(=O)O

Look over these answered cases.
Lookup: Tell me the measured IC50 of CC(C)C[C@@H]1NC(=O)[C@H]([C@@H](C)O)NC(=O)[C@H](CC(=O)O)NC(=O)[C@H](CO)NC(=O)[C@H](CCCNC(=N)N)N(C)C(=O)[C@@H](NC(=O)CCN)C(C)(C)SSC(C)(C)[C@@H](C(=O)N[C@@H](Cc2c[nH]c3ccccc23)C(=O)N[C@H](CCC(=O)O)C(N)=O)NC1=O [compound 53] (H-[βAla][Pen][NMeR]SDTL[Pen]W[dE]-NH2; disulfide 2-8) , please.
Found: 10 to 25 nM

Lookup: Using the record for CC(=O)N[C@@H]1C(=O)N(C)[C@@H](CCCNC(=N)N)C(=O)N[C@@H](CO)C(=O)N[C@@H](CC(=O)O)C(=O)N[C@@H]([C@@H](C)O)C(=O)N[C@@H](CC(C)C)C(=O)N[C@H](C(=O)N[C@@H](Cc2ccc(C(C)(C)C)cc2)C(=O)N[C@@H](CCC(=O)O)CC(=O)N[C@H](CCCCN)C(N)=O)C(C)(C)SSC1(C)C [compound 153] (Ac-[Pen][NMeR]SDTL[Pen][Phe(4-tBu)][β3hE][dK]-NH2; disulfide 1-7) , report its IC50.
Found: 10 to 25 nM

Moving on to the next molecule.
Lookup: Need IC50, item CC(=O)N[C@@H]1C(=O)N(C)[C@@H](CCCNC(=N)N)C(=O)N[C@@H](CO)C(=O)N[C@@H](CC(=O)O)C(=O)N[C@@H]([C@@H](C)O)C(=O)N[C@@H](CC(C)C)C(=O)N[C@H](C(=O)N[C@@H](Cc2ccc3ccccc3c2)C(=O)N[C@H](CCC(=O)O)C(=O)N[C@H](CCCCN)C(N)=O)C(C)(C)SSC1(C)C [compound 9] (Ac-[Pen][NMeR]SDTL[Pen][2Nal][dE][dK]-NH2; disulfide 1-7)
Found: 10 to 25 nM

* * *

- testTarget: α4β7 (Homo sapiens, UniProt P13612+P26010)
- Sequence (P13612 34-1032): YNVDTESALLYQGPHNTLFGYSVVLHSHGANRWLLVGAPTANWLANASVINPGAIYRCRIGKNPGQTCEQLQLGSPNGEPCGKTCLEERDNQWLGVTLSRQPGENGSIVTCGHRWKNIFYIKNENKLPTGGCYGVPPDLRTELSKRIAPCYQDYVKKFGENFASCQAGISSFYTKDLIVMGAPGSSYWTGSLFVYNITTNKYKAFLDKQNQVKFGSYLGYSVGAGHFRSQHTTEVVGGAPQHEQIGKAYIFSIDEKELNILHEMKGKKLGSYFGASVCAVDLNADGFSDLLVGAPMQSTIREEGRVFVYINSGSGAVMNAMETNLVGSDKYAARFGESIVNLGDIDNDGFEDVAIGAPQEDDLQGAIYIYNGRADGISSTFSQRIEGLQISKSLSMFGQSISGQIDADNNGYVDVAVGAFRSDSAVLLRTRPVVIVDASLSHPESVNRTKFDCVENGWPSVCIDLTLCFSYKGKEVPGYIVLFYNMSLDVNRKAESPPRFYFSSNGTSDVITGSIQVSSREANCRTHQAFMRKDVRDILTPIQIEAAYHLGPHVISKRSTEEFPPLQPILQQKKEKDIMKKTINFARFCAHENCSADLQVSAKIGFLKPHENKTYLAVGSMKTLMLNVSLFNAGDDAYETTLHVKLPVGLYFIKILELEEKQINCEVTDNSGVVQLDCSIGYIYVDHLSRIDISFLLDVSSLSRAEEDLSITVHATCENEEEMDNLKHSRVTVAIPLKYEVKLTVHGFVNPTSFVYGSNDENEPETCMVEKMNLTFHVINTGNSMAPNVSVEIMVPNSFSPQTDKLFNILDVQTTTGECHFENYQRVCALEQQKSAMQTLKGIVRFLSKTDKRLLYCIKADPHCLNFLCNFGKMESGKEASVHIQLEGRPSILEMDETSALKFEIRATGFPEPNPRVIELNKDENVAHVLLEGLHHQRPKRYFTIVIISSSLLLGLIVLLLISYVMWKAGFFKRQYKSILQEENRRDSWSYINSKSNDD
- Sequence (P26010 20-798): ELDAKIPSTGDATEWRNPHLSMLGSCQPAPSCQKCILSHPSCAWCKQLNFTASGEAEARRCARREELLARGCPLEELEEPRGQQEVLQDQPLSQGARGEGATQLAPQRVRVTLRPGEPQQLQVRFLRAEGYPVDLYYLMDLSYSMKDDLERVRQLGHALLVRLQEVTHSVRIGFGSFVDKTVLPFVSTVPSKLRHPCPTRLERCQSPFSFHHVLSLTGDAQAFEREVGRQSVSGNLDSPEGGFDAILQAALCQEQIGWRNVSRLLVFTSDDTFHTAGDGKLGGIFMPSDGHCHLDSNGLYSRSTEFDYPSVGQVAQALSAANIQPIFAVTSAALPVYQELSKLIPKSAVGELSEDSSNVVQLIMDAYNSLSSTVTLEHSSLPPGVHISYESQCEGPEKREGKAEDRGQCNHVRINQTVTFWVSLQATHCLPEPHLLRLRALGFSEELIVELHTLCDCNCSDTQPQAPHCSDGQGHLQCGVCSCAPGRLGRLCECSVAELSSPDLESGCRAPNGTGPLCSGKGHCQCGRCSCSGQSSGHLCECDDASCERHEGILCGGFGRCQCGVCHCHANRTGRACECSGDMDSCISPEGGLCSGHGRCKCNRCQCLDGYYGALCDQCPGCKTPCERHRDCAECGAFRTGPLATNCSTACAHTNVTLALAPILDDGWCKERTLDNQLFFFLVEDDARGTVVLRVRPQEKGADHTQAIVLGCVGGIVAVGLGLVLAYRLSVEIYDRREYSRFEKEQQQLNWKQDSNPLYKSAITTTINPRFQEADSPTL
- protocolDetails: α4β7-MAdCAM Cell Adhesion Assay (RPMI 8866 human cells)
- Assay type: cell-based
- Set-up: host or cells: RPMI 8866 human B lymphoblastoid cells
- particulars: Table 3-B, Potency (α4β7); range classes; read-out: α4β7 cell (Hu) IC50
pIC50: −log10 of the molar value. Bridge positions count the residues as written; N and C are the ends. Square brackets hold non-standard residues; d marks the D form. Peptide text beside a SMILES is read from it. * marks the point of attachment. Phe(4-tBu) = CC(C)(C)c1ccc(C[C@H](N)C(=O)O)cc1; NMeR = CN[C@@H](CCCNC(=N)N)C(=O)O; Myristoyl = CCCCCCCCCCCCCC(=O)*; β3hE = N[C@@H](CCC(=O)O)CC(=O)O; Pen = CC(C)(S)[C@H](N)C(=O)O; Dab = NCC[C@H](N)C(=O)O; Dap = NC[C@H](N)C(=O)O
propertyMeasured: pIC50

Before answering, review these 4 worked examples.
Lookup: Give its pIC50 value. Item: CCCCCCCCCCCCCC(=O)N[C@@H]1C(=O)N(C)[C@@H](CCCNC(=N)N)C(=O)N[C@@H](CO)C(=O)N[C@@H](CC(=O)O)C(=O)N[C@@H]([C@@H](C)O)C(=O)N[C@@H](CC(C)C)C(=O)N[C@H](C(=O)N[C@@H](Cc2ccc(C(C)(C)C)cc2)C(=O)N[C@@H](CCC(=O)O)CC(=O)N[C@H](CCCCN)C(N)=O)C(C)(C)SSC1(C)C [compound 181] (Myristoyl-[Pen][NMeR]SDTL[Pen][Phe(4-tBu)][β3hE][dK]-NH2; disulfide 1-7)
Found: 5.00 to 6.00

Lookup: Return reported pIC50; argument: CC(=O)N[C@@H]1C(=O)N(C)[C@@H](CCCNC(=N)N)C(=O)N[C@@H](CO)C(=O)N[C@@H](CC(=O)O)C(=O)N[C@@H]([C@@H](C)O)C(=O)N[C@@H](CC(C)C)C(=O)N[C@H](C(=O)N[C@@H](Cc2ccc(C(C)(C)C)cc2)C(=O)N[C@@H](CCC(=O)O)CC(=O)O)C(C)(C)SSC1(C)C [compound 152] (Ac-[Pen][NMeR]SDTL[Pen][Phe(4-tBu)][β3hE]-OH; disulfide 1-7)
Found: > 8.00

Lookup: Data request, read-out pIC50, for CC(=O)N[C@@H]1C(=O)N(C)[C@@H](CCCNC(=N)N)C(=O)N[C@@H](CO)C(=O)N[C@@H](CC(=O)O)C(=O)N[C@@H]([C@@H](C)O)C(=O)N[C@@H](CC(C)C)C(=O)N[C@H](C(=O)N[C@@H](Cc2c[nH]c3ccccc23)C(=O)N[C@H](CCC(=O)O)C(=O)N[C@@H](CN)C(N)=O)C(C)(C)SSC1(C)C [compound 55] (Ac-[Pen][NMeR]SDTL[Pen]W[dE][Dap]-NH2; disulfide 1-7)
Found: 6.30 to 7.00

Lookup: Which value of pIC50 has been reported for CC(=O)N[C@@H]1C(=O)N(C)[C@@H](CCCNC(=N)N)C(=O)N[C@@H](CO)C(=O)N[C@@H](CC(=O)O)C(=O)N[C@@H]([C@@H](C)O)C(=O)N[C@@H](CC(C)C)C(=O)N[C@H](C(=O)N[C@@H](Cc2c[nH]c3ccccc23)C(=O)N[C@@H](CCC(=O)O)C(=O)N[C@@H](CCN)C(N)=O)C(C)(C)SSC1(C)C [compound 61] (Ac-[Pen][NMeR]SDTL[Pen]WE[Dab]-NH2; disulfide 1-7) in the records?
Found: 5.00 to 6.00

***
Lookup: Sample CC(=O)N[C@@H]1C(=O)N(C)[C@@H](CCCNC(=N)N)C(=O)N[C@@H](CO)C(=O)N[C@@H](CC(=O)O)C(=O)N[C@@H]([C@@H](C)O)C(=O)N[C@@H](CC(C)C)C(=O)N[C@H](C(=O)N[C@@H](Cc2c[nH]c3ccccc23)C(=O)N[C@@H](CCC(=O)O)C(=O)N[C@@H](CN)C(N)=O)C(C)(C)SSC1(C)C [compound 59] (Ac-[Pen][NMeR]SDTL[Pen]WE[Dap]-NH2; disulfide 1-7) — what was its pIC50?
Found: 4.00 to 5.00

* * *

So I've got a bunch of compounds here, and I need their IC50 values.
- testTarget: α4β1 (Homo sapiens, UniProt P05556+P13612, DEL729-798)
- Construct: purchased R&D Systems 5668-A4
- Sequence (P13612 34-977 limits assumed, stated change not applied): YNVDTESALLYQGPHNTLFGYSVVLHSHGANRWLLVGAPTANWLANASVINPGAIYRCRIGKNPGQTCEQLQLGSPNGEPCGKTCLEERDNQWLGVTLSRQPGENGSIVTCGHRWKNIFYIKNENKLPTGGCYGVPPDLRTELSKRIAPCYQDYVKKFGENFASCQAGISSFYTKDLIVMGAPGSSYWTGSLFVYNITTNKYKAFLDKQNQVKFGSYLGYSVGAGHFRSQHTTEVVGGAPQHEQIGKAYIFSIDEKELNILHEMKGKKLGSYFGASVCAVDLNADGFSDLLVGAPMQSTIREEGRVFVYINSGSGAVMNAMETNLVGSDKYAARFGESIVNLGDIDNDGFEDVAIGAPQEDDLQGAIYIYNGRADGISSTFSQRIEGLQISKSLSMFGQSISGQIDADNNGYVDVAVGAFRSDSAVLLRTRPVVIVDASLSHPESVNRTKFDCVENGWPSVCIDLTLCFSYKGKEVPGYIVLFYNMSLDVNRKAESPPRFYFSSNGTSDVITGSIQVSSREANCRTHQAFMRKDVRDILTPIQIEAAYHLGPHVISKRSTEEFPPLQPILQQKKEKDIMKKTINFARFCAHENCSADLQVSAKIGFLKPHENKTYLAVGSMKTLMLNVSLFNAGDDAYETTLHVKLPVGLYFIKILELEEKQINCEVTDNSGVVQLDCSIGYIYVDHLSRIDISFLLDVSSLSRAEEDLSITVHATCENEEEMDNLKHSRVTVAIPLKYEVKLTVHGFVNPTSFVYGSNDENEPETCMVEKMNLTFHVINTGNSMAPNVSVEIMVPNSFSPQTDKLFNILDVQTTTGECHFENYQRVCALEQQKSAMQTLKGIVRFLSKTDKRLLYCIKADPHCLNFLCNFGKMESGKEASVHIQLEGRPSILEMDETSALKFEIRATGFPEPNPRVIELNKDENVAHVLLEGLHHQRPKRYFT
- Sequence (P05556 21-728 limits assumed, stated change not applied): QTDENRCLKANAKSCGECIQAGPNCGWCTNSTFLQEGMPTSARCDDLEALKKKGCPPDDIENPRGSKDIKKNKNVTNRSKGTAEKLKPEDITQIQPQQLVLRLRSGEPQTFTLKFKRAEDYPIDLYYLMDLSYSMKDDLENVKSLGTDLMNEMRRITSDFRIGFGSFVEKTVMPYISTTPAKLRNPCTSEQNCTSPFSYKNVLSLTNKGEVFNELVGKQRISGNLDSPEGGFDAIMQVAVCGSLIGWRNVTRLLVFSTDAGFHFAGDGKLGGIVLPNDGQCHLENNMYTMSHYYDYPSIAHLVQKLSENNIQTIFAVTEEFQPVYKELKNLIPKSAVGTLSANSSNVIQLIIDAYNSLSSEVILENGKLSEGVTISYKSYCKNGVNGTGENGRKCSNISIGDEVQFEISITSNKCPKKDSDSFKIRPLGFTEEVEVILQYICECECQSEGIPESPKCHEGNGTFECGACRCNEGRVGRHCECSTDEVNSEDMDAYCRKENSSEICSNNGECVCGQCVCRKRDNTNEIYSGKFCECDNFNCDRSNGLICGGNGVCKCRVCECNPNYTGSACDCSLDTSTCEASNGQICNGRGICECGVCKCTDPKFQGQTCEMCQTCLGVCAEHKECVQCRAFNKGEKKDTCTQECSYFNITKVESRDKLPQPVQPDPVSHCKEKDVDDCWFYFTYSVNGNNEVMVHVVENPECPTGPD
- protocolDetails: α4β1-VCAM Competition ELISA
- Type: binding
- particulars: Table 4-B; read-out: ELISA_α4β1 IC50
Bridge positions count the residues as written; N and C are the ends. Square brackets hold non-standard residues; d marks the D form. Peptide text beside a SMILES is read from it. 2Nal = N[C@@H](Cc1ccc2ccccc2c1)C(=O)O; NMeR = CN[C@@H](CCCNC(=N)N)C(=O)O; Pen = CC(C)(S)[C@H](N)C(=O)O
Numbers only, in nM.

Some solved entries appear below for comparison.
Lookup: So what does the record say about IC50 for CC(=O)N[C@@H]1C(=O)N(C)[C@@H](CCCNC(=N)N)C(=O)N[C@@H](CO)C(=O)N[C@@H](CC(=O)O)C(=O)N[C@@H]([C@@H](C)O)C(=O)N[C@@H](CC(C)C)C(=O)N[C@H](C(=O)N[C@@H](Cc2ccc3ccccc3c2)C(=O)N[C@@H](CCC(=O)O)C(=O)N[C@H](CCCCN)C(N)=O)C(C)(C)SSC1(C)C [compound 210, Ac-Pen-N-Me-R-S-D-T-L-Pen-2-Nal-E-k-NH2] (Ac-[Pen][NMeR]SDTL[Pen][2Nal]E[dK]-NH2; disulfide 1-7) ?
Found: 200

Lookup: Query: IC50; subject: CC(=O)N[C@H]1CSSC[C@@H](C(=O)NCC(=O)N[C@@H](CCC(=O)O)C(=O)N[C@@H](CCCCN)C(N)=O)NC(=O)[C@H](CC(C)C)NC(=O)[C@H]([C@@H](C)O)NC(=O)[C@H](CC(=O)O)NC(=O)[C@H](CO)NC(=O)[C@H](CCCNC(=N)N)NC1=O [compound 196, Ac-C-R-S-D-T-L-C-G-E-K-NH2] (Ac-CRSDTLCGEK-NH2; disulfide 1-7)
Found: 4810

Attention now shifts to the item below.
Lookup: Give its IC50 value. Item: CC(=O)N[C@H]1CSSC[C@@H](C(=O)NCC(=O)N[C@@H](CCC(=O)O)C(N)=O)NC(=O)[C@H](CC(C)C)NC(=O)[C@H]([C@@H](C)O)NC(=O)[C@H](CC(=O)O)NC(=O)[C@H](CO)NC(=O)[C@H](CCCNC(=N)N)NC1=O [compound 194, Ac-C-R-S-D-T-L-C-G-E-NH2] (Ac-CRSDTLCGE-NH2; disulfide 1-7)
Found: 2020

This collection of values is drawn from patent US9809623B2.
